A collection of molecules and their measured activity at 15 min, 50 µM
test-system: UGT1A1 (Homo sapiens)
Sequence (P22309 26-533): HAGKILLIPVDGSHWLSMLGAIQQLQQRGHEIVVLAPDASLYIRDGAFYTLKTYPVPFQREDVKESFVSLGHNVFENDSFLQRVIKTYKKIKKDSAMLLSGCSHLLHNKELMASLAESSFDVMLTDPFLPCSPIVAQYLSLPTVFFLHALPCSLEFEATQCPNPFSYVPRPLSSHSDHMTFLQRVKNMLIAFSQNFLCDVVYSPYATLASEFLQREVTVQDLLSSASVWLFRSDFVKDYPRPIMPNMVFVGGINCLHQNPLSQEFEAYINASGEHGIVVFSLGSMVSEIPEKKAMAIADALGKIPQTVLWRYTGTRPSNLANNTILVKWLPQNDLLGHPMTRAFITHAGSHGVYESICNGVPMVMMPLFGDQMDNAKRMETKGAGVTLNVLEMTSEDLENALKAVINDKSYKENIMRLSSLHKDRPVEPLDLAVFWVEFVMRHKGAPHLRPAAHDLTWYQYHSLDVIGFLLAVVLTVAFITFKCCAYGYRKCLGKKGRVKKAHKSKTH
test: in vitro
test-parameters: pH 7.5, % of control metabolism, raloxifene G2
readout-kind: activity at 15 min, 50 µM (%)

[
  {
    "molecule": "O=C(O)c1cc(-c2ccc(F)cc2F)ccc1O [Diflunisal, reference compound]",
    "test-system": "UGT1A1 (Homo sapiens)",
    "unit-descriptor": "%",
    "experimental-value": 33
  },
  {
    "molecule": "COc1cc(C2Oc3cc([C@H]4Oc5cc(O)cc(O)c5C(=O)[C@@H]4O)ccc3OC2CO)ccc1O (stereo partly shown)",
    "test-system": "UGT1A1 (Homo sapiens)",
    "unit-descriptor": "%",
    "experimental-value": 7
  },
  {
    "molecule": "COc1c(C)c2c(c(O)c1C/C=C(\\C)CCC(=O)O)C(=O)OC2 [Mycophenolic acid, reference compound]",
    "test-system": "UGT1A1 (Homo sapiens)",
    "unit-descriptor": "%",
    "experimental-value": 89
  },
  {
    "molecule": "CCCOC(=O)c1cc(O)c(O)c(O)c1 [Propyl gallate]",
    "test-system": "UGT1A1 (Homo sapiens)",
    "unit-descriptor": "%",
    "experimental-value": 73
  },
  {
    "molecule": "O=c1c(O)c(-c2ccc(O)c(O)c2)oc2cc(O)cc(O)c12",
    "test-system": "UGT1A1 (Homo sapiens)",
    "unit-descriptor": "%",
    "experimental-value": 3
  },
  {
    "molecule": "O=C(O)Cc1ccccc1Nc1c(Cl)cccc1Cl [Diclofenac, reference compound]",
    "test-system": "UGT1A1 (Homo sapiens)",
    "unit-descriptor": "%",
    "experimental-value": 73
  },
  {
    "molecule": "O=C(O[C@@H]1Cc2c(O)cc(O)cc2O[C@@H]1c1ccc(O)c(O)c1)c1cc(O)c(O)c(O)c1 [Epicatechin gallate]",
    "test-system": "UGT1A1 (Homo sapiens)",
    "unit-descriptor": "%",
    "experimental-value": 25
  }
]

---

test-system: UGT1A9 (Homo sapiens)
Sequence (O60656 26-530): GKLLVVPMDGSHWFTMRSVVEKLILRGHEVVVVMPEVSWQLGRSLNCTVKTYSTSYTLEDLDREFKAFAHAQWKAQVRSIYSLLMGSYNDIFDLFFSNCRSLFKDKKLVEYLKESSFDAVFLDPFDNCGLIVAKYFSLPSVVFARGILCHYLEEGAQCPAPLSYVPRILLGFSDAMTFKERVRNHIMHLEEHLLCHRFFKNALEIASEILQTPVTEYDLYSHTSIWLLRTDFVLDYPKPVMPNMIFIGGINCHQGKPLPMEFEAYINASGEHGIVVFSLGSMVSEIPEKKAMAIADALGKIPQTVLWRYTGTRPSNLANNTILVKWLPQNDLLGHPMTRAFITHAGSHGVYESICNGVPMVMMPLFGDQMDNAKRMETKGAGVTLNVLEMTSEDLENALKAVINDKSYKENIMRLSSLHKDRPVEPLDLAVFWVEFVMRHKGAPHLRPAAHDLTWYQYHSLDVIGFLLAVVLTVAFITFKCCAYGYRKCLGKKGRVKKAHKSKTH
test: in vitro
test-parameters: pH 7.5, Inhibition of raloxifene glucuronidation, UGT1A9, second line per inhibitor (G2)
readout-kind: activity at 15 min, 25 µM

[
  {
    "smiles-record": "C=CCc1ccc(O)c(OC)c1",
    "experimental-value": "51%"
  }
]

---

Tested on: UGT enzymes of human liver microsomes
test: Inhibition of raloxifene glucuronidation (G1, G2) in human liver microsomes
Type: biochemical
test-parameters: G1; inhibitor 25 μM; raloxifene 50 μM, human liver microsomes 250 μg/ml, 15 min
readout-kind: % of control metabolism (SD, n = 3), raloxifene glucuronide G1

[
  {
    "molecule": "C#C[C@]1(O)CC[C@H]2[C@@H]3CCc4cc(O)ccc4[C@H]3CC[C@@]21C [17-α-Ethinylestradiol, 17-α-ethinylestradiol, reference compound]",
    "experimental-value": "66 (3) %"
  },
  {
    "molecule": "O=C(O[C@@H]1Cc2c(O)cc(O)cc2O[C@@H]1c1ccc(O)c(O)c1)c1cc(O)c(O)c(O)c1 [Epicatechin gallate]",
    "experimental-value": "48 (4) %"
  },
  {
    "molecule": "CCCCCCCCOC(=O)c1cc(O)c(O)c(O)c1 [Octyl gallate]",
    "experimental-value": "48 (6) %"
  },
  {
    "molecule": "O=c1c(O)c(-c2ccc(O)c(O)c2)oc2cc(O)cc(O)c12",
    "experimental-value": "18 (1) %"
  }
]
